# Test: Binding affinity to LTA (unknown origin) assessed as bacterial killing at 2 times MIC preincubated for 1 hr followed by Staphylococcus aureus ATCC 25923 addition and measured after 2 hrs by colony counting method
# Protocol conditions: time 3.0 hrs
Active and inactive are the calls of the source. The rule behind the calls is not given here. Positions of bridges follow the written chain, without caps; N, C: chain ends. Non-standard residues stand in square brackets, D forms with d. Residues, ends and D or L forms follow the SMILES beside them. *: point of attachment. Myristoyl = CCCCCCCCCCCCCC(=O)*; Lauroyl = CCCCCCCCCCCC(=O)*; X1 = CC[C@H](C)CCCCC(=O)*; Dab = NCC[C@H](N)C(=O)O
Measured quantity: Activity

{"columns": ["Compound", "Result"],
 "data": [
  ["CC[C@H](C)CCCCC(=O)N[C@@H](CCN)C(=O)N[C@H](C(=O)N[C@@H](CCN)C(=O)N[C@H]1CCNC(=O)[C@H]([C@@H](C)O)NC(=O)[C@H](CCN)NC(=O)[C@H](CCN)NC(=O)[C@H](CC(C)C)NC(=O)[C@@H](Cc2ccccc2)NC(=O)[C@H](CCN)NC1=O)[C@@H](C)O (X1-[Dab]T[Dab][Dab][Dab][dF]L[Dab][Dab]T; lactam 4-C)", "Active"],
  ["CCCCCCCCCCCCCC(=O)N[C@@H](CCCNC(=N)N)C(=O)N[C@@H](Cc1c[nH]c2ccccc12)C(=O)N[C@@H](Cc1c[nH]c2ccccc12)C(N)=O (Myristoyl-Arg-Trp-Trp-NH2)", "Active"],
  ["CCCCCCCCCCCC(=O)N[C@@H](CCCNC(=N)N)C(=O)N[C@@H](CCCNC(=N)N)C(=O)N[C@@H](Cc1c[nH]c2ccccc12)C(N)=O (Lauroyl-Arg-Arg-Trp-NH2)", "Active"]
]}

----------
Known selectivity ratio of a selection of compounds
# Test: Therapeutic index, ratio of MHC for mouse RBC to geometric mean of peptide MIC for Staphylococcus epidermidis ATCC 12228
# Assay type: toxicity
# Protocol conditions: pooled result: one value given for 6 cell lines, strains, targets or settings, read-out: TI
Residues, ends and D or L forms follow the SMILES beside them. *: point of attachment. Stearoyl = CCCCCCCCCCCCCCCCCC(=O)*; Palmitoyl = CCCCCCCCCCCCCCCC(=O)*
Measured quantity: selectivity ratio

{"columns": ["Compound", "Number"],
 "data": [
  ["CCCCCCCCCCCCCCCC(=O)N[C@@H](Cc1c[nH]c2ccccc12)C(=O)N[C@@H](CCCNC(=N)N)C(=O)N[C@@H](CCCNC(=N)N)C(N)=O (Palmitoyl-Trp-Arg-Arg-NH2)", 4],
  ["CCCCCCCCCCCCCCCCCC(=O)N[C@@H](Cc1c[nH]c2ccccc12)C(=O)N[C@@H](CCCNC(=N)N)C(=O)N[C@@H](CCCNC(=N)N)C(N)=O (Stearoyl-Trp-Arg-Arg-NH2)", 2],
  ["CCCCCCCCCCCCCCCCCC(=O)N[C@@H](CCCNC(=N)N)C(=O)N[C@@H](CCCNC(=N)N)C(=O)N[C@@H](Cc1c[nH]c2ccccc12)C(N)=O (Stearoyl-Arg-Arg-Trp-NH2)", 3.69],
  ["CCCCCCCCCCCCCCCC(=O)N[C@@H](CCCNC(=N)N)C(=O)N[C@@H](Cc1c[nH]c2ccccc12)C(=O)N[C@@H](CCCNC(=N)N)C(N)=O (Palmitoyl-Arg-Trp-Arg-NH2)", 7.38]
]}
